tested.target: progesterone receptor-B (Homo sapiens, UniProt P06401)
test: Progesterone receptor-B transactivation, agonistic mode (CHO cells, luciferase)
Format: cell-based
assay.context: CHO, intrinsic agonistic activity, relative to reference (16α)-16-ethyl-21-hydroxy-19-norpregn-4-ene-3,20-dione; read-out: PRBago Eff (%)
Criterion: Emax meeting or surpassing 50%. Met: class 1. Not met: class 0.

Query block: State whether the measured Emax reaches 50%, counting equality as reaching it, for Cc1ccc(-c2ccc([C@H]3C[C@@]4(C)[C@@H](C[C@@H](C)[C@@H]4C(=O)C4CC4)[C@@H]4CCC5=CC(=O)CCC5=C43)cc2)nc1
Result block: class 1

Query block: State whether the measured Emax reaches 50%, counting equality as reaching it, for C=C[C@@H]1C[C@H]2[C@@H]3CCC4=CC(=O)CCC4=C3[C@@H](c3ccc(-c4cccnc4)cc3)C[C@]2(C)[C@H]1C(=O)C1CC1
Result block: class 0

Query block: State whether the measured Emax reaches 50%, counting equality as reaching it, for C[C@@H]1C[C@H]2[C@@H]3CCC4=CC(=O)CCC4=C3[C@@H](c3ccc(-c4ccc(Cl)nc4)cc3)C[C@]2(C)[C@H]1C(=O)C1CC1
Result block: class 0

Query block: State whether the measured Emax reaches 50%, counting equality as reaching it, for C[C@@H]1C[C@H]2[C@@H]3CCC4=CC(=O)CCC4=C3[C@@H](c3ccc(-c4cnccn4)cc3)C[C@]2(C)[C@H]1C(=O)C1CC1
Result block: class 1

----------
tested.target: progesterone receptor-B (Homo sapiens, UniProt P06401)
test: Progesterone receptor-B transactivation, antagonistic mode (inhibition of luciferase transactivation by inducer, CHO cells)
Type: cell-based
assay.context: CHO; intrinsic antagonistic activity, percentage of effect of standard antagonist (6β,11β,17β)-11-[4-(dimethylamino)phenyl]-4′,5′-dihydro-6-methylspiro[estra-4,9-diene-17,2′(3′H)-furan]-3-one; 0.1 nM inducer; read-out: PRBant Eff (%)
Consider the following compounds; for each one, report its Emax.
Give your result in % as a bare value.

Query block: Supply Emax measured with progesterone receptor-B (Homo sapiens, UniProt P06401) for COc1ccc(-c2ccc([C@H]3C[C@@]4(C)[C@@H](CC[C@@]45CCCC5=O)[C@@H]4CCC5=CC(=O)CCC5=C43)cc2)cn1 .
Result block: 62

Query block: Supply Emax measured with progesterone receptor-B (Homo sapiens, UniProt P06401) for C[C@@H]1C[C@H]2[C@@H]3CCC4=CC(=O)CCC4=C3[C@@H](c3ccc(-c4ccnnc4)cc3)C[C@]2(C)[C@H]1C(=O)C1CC1 .
Result block: 37

Query block: Supply Emax measured with progesterone receptor-B (Homo sapiens, UniProt P06401) for C=C[C@@H]1C[C@H]2[C@@H]3CCC4=CC(=O)CCC4=C3[C@@H](c3ccc(-c4ccc(OC)nc4)cc3)C[C@]2(C)[C@H]1C(=O)C1CC1 .
Result block: 44.5

Query block: Supply Emax measured with progesterone receptor-B (Homo sapiens, UniProt P06401) for C[C@@H]1C[C@H]2[C@@H]3CCC4=CC(=O)CCC4=C3[C@@H](c3ccc(-c4ccncc4)cc3)C[C@]2(C)[C@H]1C(=O)C1CC1 .
Result block: 26.5

Query block: Supply Emax measured with progesterone receptor-B (Homo sapiens, UniProt P06401) for C[C@@H]1C[C@H]2[C@@H]3CCC4=CC(=O)CCC4=C3[C@@H](c3ccc(-c4cnccn4)cc3)C[C@]2(C)[C@H]1C(=O)C1CC1 .
Result block: 35

Query block: Supply Emax measured with progesterone receptor-B (Homo sapiens, UniProt P06401) for C[C@@H]1C[C@H]2[C@@H]3CCC4=CC(=O)CCC4=C3[C@@H](c3ccc(-c4ccc(Cl)nc4)cc3)C[C@]2(C)[C@H]1C(=O)C1CC1 .
Result block: 43

----------
tested.target: progesterone receptor-B (Homo sapiens, UniProt P06401)
test: Progesterone receptor-B transactivation, antagonistic mode (inhibition of luciferase transactivation by inducer, CHO cells)
Format: cell-based
assay.context: CHO; intrinsic antagonistic activity, percentage of effect of standard antagonist (6β,11β,17β)-11-[4-(dimethylamino)phenyl]-4′,5′-dihydro-6-methylspiro[estra-4,9-diene-17,2′(3′H)-furan]-3-one; 0.1 nM inducer; read-out: PRBant Eff (%)
measured.quantity: Emax (%)
Give your result in % as a bare value.

Query block: # return recorded Emax for entry C[C@@H]1C[C@H]2[C@@H]3CCC4=CC(=O)CCC4=C3[C@@H](c3ccc(-c4ccc(F)nc4)cc3)C[C@]2(C)[C@H]1C(=O)C1CC1 [Example 5]
Result block: 50

Query block: # return recorded Emax for entry COc1ccc(-c2ccc([C@H]3C[C@@]4(C)[C@@H](C[C@@H](C)[C@@H]4C(=O)C4CC4)[C@@H]4CCC5=CC(=O)CCC5=C43)cc2)cn1 [Example 3]
Result block: 59

Query block: # return recorded Emax for entry Cc1ccc(-c2ccc([C@H]3C[C@@]4(C)[C@@H](C[C@@H](C)[C@@H]4C(=O)C4CC4)[C@@H]4CCC5=CC(=O)CCC5=C43)cc2)nc1 [Example 11]
Result block: 35

Query block: # return recorded Emax for entry C=C[C@@H]1C[C@H]2[C@@H]3CCC4=CC(=O)CCC4=C3[C@@H](c3ccc(-c4cccnc4)cc3)C[C@]2(C)[C@H]1C(=O)C1CC1 [Example 13]
Result block: 38

Query block: # return recorded Emax for entry C[C@]12C[C@H](c3ccc(-c4cccnc4)cc3)C3=C4CCC(=O)C=C4CC[C@H]3[C@@H]1CC[C@@H]2C(=O)C1CC1 [Example 18]
Result block: 66

Query block: # return recorded Emax for entry COc1cncc(-c2ccc([C@H]3C[C@@]4(C)[C@@H](C[C@@H](C)[C@@H]4C(=O)C4CC4)[C@@H]4CCC5=CC(=O)CCC5=C43)cc2)c1 [Example 6]
Result block: 34

----------
tested.target: progesterone receptor-B (Homo sapiens, UniProt P06401)
Sequence (P06401 1-933): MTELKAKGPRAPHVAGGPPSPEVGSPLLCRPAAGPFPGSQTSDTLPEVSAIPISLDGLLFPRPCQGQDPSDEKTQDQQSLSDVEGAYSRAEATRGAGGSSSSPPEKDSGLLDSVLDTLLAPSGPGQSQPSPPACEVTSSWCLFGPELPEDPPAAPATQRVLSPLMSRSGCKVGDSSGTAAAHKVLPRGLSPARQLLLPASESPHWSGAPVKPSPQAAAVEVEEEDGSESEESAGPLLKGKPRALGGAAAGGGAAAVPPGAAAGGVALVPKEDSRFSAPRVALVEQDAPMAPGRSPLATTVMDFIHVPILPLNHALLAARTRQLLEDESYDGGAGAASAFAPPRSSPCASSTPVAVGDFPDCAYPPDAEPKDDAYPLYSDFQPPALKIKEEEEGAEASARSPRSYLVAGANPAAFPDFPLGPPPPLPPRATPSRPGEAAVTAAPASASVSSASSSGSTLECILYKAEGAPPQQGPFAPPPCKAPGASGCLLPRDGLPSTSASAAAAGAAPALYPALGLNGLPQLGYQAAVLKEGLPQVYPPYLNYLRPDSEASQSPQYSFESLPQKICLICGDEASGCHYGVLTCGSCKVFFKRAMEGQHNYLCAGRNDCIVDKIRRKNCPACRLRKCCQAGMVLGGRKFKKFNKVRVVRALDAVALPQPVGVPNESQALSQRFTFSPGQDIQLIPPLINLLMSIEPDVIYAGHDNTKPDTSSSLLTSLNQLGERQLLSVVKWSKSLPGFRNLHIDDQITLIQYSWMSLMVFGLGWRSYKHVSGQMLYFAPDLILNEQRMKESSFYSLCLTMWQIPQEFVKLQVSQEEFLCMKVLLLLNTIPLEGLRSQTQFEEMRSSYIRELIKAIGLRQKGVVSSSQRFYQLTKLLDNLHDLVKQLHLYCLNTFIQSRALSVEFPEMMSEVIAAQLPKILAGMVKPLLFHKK
test: Progesterone receptor-B transactivation, agonistic mode (CHO cells, luciferase)
Type: cell-based
assay.context: CHO cells, agonistic mode; read-out: PRBagoEC50
Consider the following compounds; for each one, report its pEC50.
Convention used: pEC50 is expressed as -log10 of the molar concentration.

Query block: # return recorded pEC50 for entry C[C@]12C[C@H](c3ccc(-c4cccnc4)cc3)C3=C4CCC(=O)C=C4CC[C@H]3[C@@H]1C[C@@H](/C=C/c1ccccc1)[C@@H]2C(=O)C1CC1
Result block: 8.24

Query block: # return recorded pEC50 for entry C[C@@H]1C[C@H]2[C@@H]3CCC4=CC(=O)CCC4=C3[C@@H](c3ccc(-c4ccnnc4)cc3)C[C@]2(C)[C@H]1C(=O)C1CC1
Result block: 9.44

Query block: # return recorded pEC50 for entry Cc1ccc(-c2ccc([C@H]3C[C@@]4(C)[C@@H](C[C@@H](C)[C@@H]4C(=O)C4CC4)[C@@H]4CCC5=CC(=O)CCC5=C43)cc2)nc1
Result block: 8.77

Query block: # return recorded pEC50 for entry CC12CC(c3ccc(-c4cccnc4)cc3)C3=C4CCC(=O)C=C4CCC3C1CCC21CCCC1=O (stereo not drawn) [Example 23]
Result block: 9.54

Query block: # return recorded pEC50 for entry COc1ccc(-c2ccc([C@H]3C[C@@]4(C)[C@@H](CC[C@@]45CCCC5=O)[C@@H]4CCC5=CC(=O)CCC5=C43)cc2)cn1
Result block: 9.82

Query block: # return recorded pEC50 for entry C[C@@H]1C[C@@H]2C(=C3CCC(=O)C=C31)[C@@H](c1ccc(-c3cccnc3)cc1)C[C@@]1(C)[C@H]2C[C@@H](C)[C@@H]1C(=O)C1CC1
Result block: 9.09
